B1: RHOBTB3 (parent)
chain: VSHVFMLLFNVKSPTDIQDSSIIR

Variants of: B1
Test: protein stability index of a GFP-peptide fusion (GPS, HEK-293T) (PSI 1-6); higher = more stable;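 further: lentivirally expressed fusions sorted by FACS into six bins by GFP to DsRed ratio, PSI derived from sequencing read proportions per bin multiplied by bin number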
Settings: c terminus: a fixed tail appended
Definition: the class of an entry is the range in bucket A: < 2; bucket B: ≥ 2 and < 3; bucket C: ≥ 3 that contains its protein stability index.

> print(dat)
   mutation.list  label.class
1           I23H     bucket B
2           I22T     bucket B
3           V11I     bucket C
4            M6L     bucket C

Consider the additional variant presented here.
Request: Into which bin does this variant go? V11M
Response: bucket C
